Assay: self-splicing fitness, log relative to wild type (ln ratio); higher = more splicing; Tetrahymena group I intron in knt gene, E. coli kanamycin selection, DiMSum; sequences stand for … in CUCUCU…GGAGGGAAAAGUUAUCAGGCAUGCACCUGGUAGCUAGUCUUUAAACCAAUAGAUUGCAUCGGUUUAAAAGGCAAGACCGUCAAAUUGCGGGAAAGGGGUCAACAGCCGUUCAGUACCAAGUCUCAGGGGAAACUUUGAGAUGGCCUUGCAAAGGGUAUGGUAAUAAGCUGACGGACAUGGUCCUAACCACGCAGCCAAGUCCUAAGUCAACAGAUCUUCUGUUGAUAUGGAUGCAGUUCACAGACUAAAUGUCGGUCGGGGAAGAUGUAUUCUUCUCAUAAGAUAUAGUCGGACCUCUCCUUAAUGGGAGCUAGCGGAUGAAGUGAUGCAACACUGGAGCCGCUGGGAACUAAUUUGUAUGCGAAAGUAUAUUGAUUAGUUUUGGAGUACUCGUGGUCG;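 also: selection with 25 µg/mL kanamycin versus none on LB agar overnight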
Details: 30 °C
Task for the reader: assign each of the following sequences its reported self-splicing fitness (ln).
Answers are plain numbers.

{"sequence text": "GGAAAGCAAUAUUACGGCAG", "parameter measured": "self-splicing fitness (ln)", "observed": -1.79}

I have 5 sequences here; please give me self-splicing fitness (ln) for each one.
1. CCCAAGCAAUAUUACGCAGA
2. AGUUAGCAAUAUUACGCAAU
3. CUAUAGCAAUAUUACGCUAG
4. GAGGAGCAAUAUUACGAGCG
5. GGUGAGCAAUAUUACGUUAU

stdout:
[-2.74, -1.6, -3.14, -3.24, -3.23]

----------
Experiment: self-splicing fitness, log relative to wild type (ln ratio); higher = more splicing; Tetrahymena group I intron in knt gene, E. coli kanamycin selection, DiMSum; sequences stand for … in CUCUCU…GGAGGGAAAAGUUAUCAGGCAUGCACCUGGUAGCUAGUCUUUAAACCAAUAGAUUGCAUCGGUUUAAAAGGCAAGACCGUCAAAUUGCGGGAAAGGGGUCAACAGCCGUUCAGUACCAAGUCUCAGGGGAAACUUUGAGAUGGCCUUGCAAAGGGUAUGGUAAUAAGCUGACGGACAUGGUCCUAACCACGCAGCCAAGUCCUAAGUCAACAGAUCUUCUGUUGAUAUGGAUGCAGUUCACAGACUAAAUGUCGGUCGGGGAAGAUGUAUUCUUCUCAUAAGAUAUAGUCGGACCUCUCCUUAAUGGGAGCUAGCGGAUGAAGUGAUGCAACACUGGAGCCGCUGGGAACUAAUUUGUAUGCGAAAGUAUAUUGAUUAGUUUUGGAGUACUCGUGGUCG
Conditions: 37 °C
Task for the reader: assign each of the following sequences its reported self-splicing fitness (ln).
Give bare numbers.

{"sequence text": "UCGCAGCAAUAUUACGCAGG", "parameter measured": "self-splicing fitness (ln)", "observed": -2.2}
{"sequence text": "GAGCAGCAAUAUUACGUUCU", "parameter measured": "self-splicing fitness (ln)", "observed": -2.48}
{"sequence text": "CUUGAGCAAUAUUACGGAUA", "parameter measured": "self-splicing fitness (ln)", "observed": -1.76}

I have 4 sequences here; please give me self-splicing fitness (ln) for each one.
1. UUAUAGCAAUAUUACGGUAC
2. UCAAAGCAAUAUUACGAUCU
3. CAGUAGCAAUAUUACGGCAA
4. GGUUAGCAAUAUUACGUCUG

stdout:
-2.45
-0.778
-1.86
-0.405

I have 2 sequences here; please give me self-splicing fitness (ln) for each one.
1. UGUCAGCAAUAUUACGCUAA
2. UGGCAGCAAUAUUACGGGUU

stdout:
[0.355, -2.45]

----------
Test: self-splicing fitness, log relative to wild type (ln ratio); higher = more splicing; Tetrahymena group I intron in knt gene, E. coli kanamycin selection, DiMSum; sequences stand for … in CUCUCU…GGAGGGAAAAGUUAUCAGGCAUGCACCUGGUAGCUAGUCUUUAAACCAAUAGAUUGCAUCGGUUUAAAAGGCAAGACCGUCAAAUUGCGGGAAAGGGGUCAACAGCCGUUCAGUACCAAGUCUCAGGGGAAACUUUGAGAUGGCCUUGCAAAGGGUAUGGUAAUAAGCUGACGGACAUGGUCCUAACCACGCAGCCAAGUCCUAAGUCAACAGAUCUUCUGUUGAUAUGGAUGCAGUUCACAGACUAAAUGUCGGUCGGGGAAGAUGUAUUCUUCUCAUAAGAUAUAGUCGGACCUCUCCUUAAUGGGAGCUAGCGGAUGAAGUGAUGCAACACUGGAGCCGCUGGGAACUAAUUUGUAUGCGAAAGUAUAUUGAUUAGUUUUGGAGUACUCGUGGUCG
Conditions: 30 °C
parameter measured: self-splicing fitness (ln)
Numbers only.

Check out these entries, answers already filled in.
{"sequence text": "GUGGAGCAAUAUUACGCCUA", "self-splicing fitness (ln)": -3}
{"sequence text": "GGUGAGCAAUAUUACGACGC", "self-splicing fitness (ln)": -0.546}
{"sequence text": "AAGGAGCAAUAUUACGUACA", "self-splicing fitness (ln)": -2.75}
{"sequence text": "CUUAAGCAAUAUUACGGGGC", "self-splicing fitness (ln)": -3.68}

I have 8 sequences here; please give me self-splicing fitness (ln) for each one.
1. UGUCAGCAAUAUUACGGUCU
2. UCAUAGCAAUAUUACGCAGC
3. GCUAAGCAAUAUUACGAUUU
4. CUUGAGCAAUAUUACGGAUA
5. ACGAAGCAAUAUUACGACAC
6. GCGGAGCAAUAUUACGAGCG
7. UUAGAGCAAUAUUACGCCUU
8. GGCGAGCAAUAUUACGGUAA

stdout:
[-0.529, -3.15, -0.73, -3.62, -2.4, -1.01, -2.34, -2.66]

I have 2 sequences here; please give me self-splicing fitness (ln) for each one.
1. GUUCAGCAAUAUUACGAGAG
2. GAAAAGCAAUAUUACGAGUA

stdout:
[-0.895, -3.92]

I have 4 sequences here; please give me self-splicing fitness (ln) for each one.
1. AGACAGCAAUAUUACGUUGC
2. CGAAAGCAAUAUUACGCGAG
3. AAUUAGCAAUAUUACGCAAC
4. ACCAAGCAAUAUUACGCUUA

stdout:
1. -3.73
2. -2.88
3. -3
4. -1.86

stdin: So what does the record say about self-splicing fitness (ln) for UUAUAGCAAUAUUACGGUAG ?
stdout: -1.38

----------
Assay: self-splicing fitness, log relative to wild type (ln ratio); higher = more splicing; Tetrahymena group I intron in knt gene, E. coli kanamycin selection, DiMSum; sequences stand for … in CUCUCU…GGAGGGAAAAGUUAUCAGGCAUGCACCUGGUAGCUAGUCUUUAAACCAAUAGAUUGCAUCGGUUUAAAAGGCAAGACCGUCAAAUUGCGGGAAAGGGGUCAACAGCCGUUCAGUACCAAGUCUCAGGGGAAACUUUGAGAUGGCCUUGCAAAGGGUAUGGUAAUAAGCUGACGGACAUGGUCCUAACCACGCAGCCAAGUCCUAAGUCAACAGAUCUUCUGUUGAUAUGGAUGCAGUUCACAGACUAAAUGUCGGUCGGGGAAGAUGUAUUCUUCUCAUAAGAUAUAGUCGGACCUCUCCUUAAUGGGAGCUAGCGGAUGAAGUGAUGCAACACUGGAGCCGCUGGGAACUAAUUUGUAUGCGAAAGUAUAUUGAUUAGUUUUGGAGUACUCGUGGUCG
Settings: 37 °C
# self-splicing fitness (ln) >= -0.6 gives 1, anything below gives -1

These solved cases illustrate the format of a correct answer.
{"sequence text": "GUCCAGCAAUAUUACGACUC", "class assignment": 1}
{"sequence text": "ACCGAGCAAUAUUACGAAGA", "class assignment": -1}
{"sequence text": "GCUCAGCAAUAUUACGUUCU", "class assignment": 1}
{"sequence text": "CACUAGCAAUAUUACGUUGA", "class assignment": -1}
{"sequence text": "GCUGAGCAAUAUUACGCUGA", "class assignment": -1}
{"sequence text": "GUUUAGCAAUAUUACGUGAA", "class assignment": -1}

stdin: Determine whether measured self-splicing fitness (ln) meets or exceeds -0.6 for AUUCAGCAAUAUUACGUCCC
stdout: -1

stdin: Determine whether measured self-splicing fitness (ln) meets or exceeds -0.6 for GUAAAGCAAUAUUACGUUCC
stdout: 1

stdin: Determine whether measured self-splicing fitness (ln) meets or exceeds -0.6 for AAAGAGCAAUAUUACGGGAA
stdout: -1

stdin: Determine whether measured self-splicing fitness (ln) meets or exceeds -0.6 for UAGAAGCAAUAUUACGUCCU
stdout: 1

----------
Test: self-splicing fitness, log relative to wild type (ln ratio); higher = more splicing; Tetrahymena group I intron in knt gene, E. coli kanamycin selection, DiMSum; sequences stand for … in CUCUCU…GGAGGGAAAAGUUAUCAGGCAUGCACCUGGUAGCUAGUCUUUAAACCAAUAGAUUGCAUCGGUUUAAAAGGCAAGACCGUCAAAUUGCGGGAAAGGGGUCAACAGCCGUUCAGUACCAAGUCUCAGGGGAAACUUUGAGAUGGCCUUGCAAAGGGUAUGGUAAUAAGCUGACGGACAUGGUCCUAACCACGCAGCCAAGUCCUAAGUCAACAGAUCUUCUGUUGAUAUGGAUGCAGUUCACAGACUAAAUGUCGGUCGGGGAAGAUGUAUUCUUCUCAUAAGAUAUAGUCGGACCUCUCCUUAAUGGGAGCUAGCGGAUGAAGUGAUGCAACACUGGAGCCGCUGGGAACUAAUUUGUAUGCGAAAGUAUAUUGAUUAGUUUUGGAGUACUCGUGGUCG
Conditions: 30 °C
Task for the reader: assign each of the following sequences its reported self-splicing fitness (ln).
Give bare numbers.

{"sequence text": "ACUUAGCAAUAUUACGCCAA", "observed": -3.19}
{"sequence text": "ACUAAGCAAUAUUACGACAC", "observed": -0.549}

Now let's try a different one.
stdin: So what does the record say about self-splicing fitness (ln) for GGCCAGCAAUAUUACGUAGU ?
stdout: -2.25
